assayName: solvent given as SMILES
assayContext: in C1CCCCC1
Define the label as criterion met when absorption maximum is strictly less than 400 nm and as criterion not met in all remaining cases.

1) CC1=[N+]2C(=C(c3cccs3)c3ccc(C)n3[B-]2(F)F)C=C1c1cc2n(c1)[B-](F)(F)[N+]1=CC=CC1=C2c1c(C)cc(C)cc1C; criterion not met
2) COc1ccc(/C=C/c2nc3ccccc3o2)cc1; criterion met
3) c1ccc2c(-n3c4ccccc4c4ccccc43)cccc2c1; criterion met
4) Cc1ccc(C2=C3C=C(I)C(I)=[N+]3[B-](F)(F)n3c2cc(I)c3I)cc1; criterion not met
5) Nc1ccc2c(c1)C(=O)c1ccccc1-2; criterion not met
6) Cc1ccc(C2=C3C=CC(/C=C/c4ccccc4)=[N+]3[B-](F)(F)n3c(/C=C/c4ccccc4)ccc32)cc1; criterion not met
7) Cc1cccc(C)c1; criterion met
8) CC(C)(C)NC1=C2C=CC=[N+]2[B-](F)(F)n2cccc21; criterion not met
9) CN(C)c1c2ccccc2cc2ccccc12; criterion met
10) COc1ccc(C(=O)/C=C2\C(=O)Nc3ccccc32)c(OC)c1; criterion met
11) N#Cc1cc2ccc(O)cc2oc1=O; criterion met
12) N#Cc1ccc(N)cc1; criterion met
13) CCCN1/C(=C\c2c(-c3ccc(N(C)C)cc3)c(=O)c2=O)C=Cc2ccccc21; criterion met

* * *

assayName: solvent given as SMILES
assayContext: in CCO
Listed below: absorption maximum values for each entry.
reportedProperty: absorption maximum (nm)

1. CCC1(CC)c2cc(B(c3c(C)cc(C)cc3C)c3c(C)cc(C)cc3C)ccc2-c2c1c1c(c3c2C(CC)(CC)c2cc(N(c4ccccc4)c4ccccc4)ccc2-3)C(CC)(CC)c2cc(B(c3c(C)cc(C)cc3C)c3c(C)cc(C)cc3C)ccc2-1; 360
2. CC/[NH+]=c1\cc2oc3cc(NCCO)c4ccccc4c3nc-2cc1C; 590
3. COc1cc(OC)cc(C(=O)OCc2c(C)c(=O)n3c(=O)c(C)c(C)n23)c1; 378
4. Cc1cc(C)c2cc3cc(C)ncc3cc2c1; 386.1
5. CN1C(=CC2=C(O)C(=O)C2=C2C(=O)c3ccccc3C2=O)C(C)(C)c2ccccc21; 492
6. CCC1=C(C)C2=C(C)c3c(I)c(I)c(I)n3[B-](F)(F)[N+]2=C1C; 522
7. CN1/C(=C/C2=C([O-])C(=O)C2=C2C(=O)NC(=O)NC2=O)C(C)(C)c2ccccc21; 457
8. COC(=O)c1c2ccccc2nc2ccccc12; 360
9. CC(=O)N(Cc1ccccn1)c1c2ccccc2c2c3c(cccc13)C(=O)N(Cc1ccccn1)C2=O; 437
10. COc1ccc(-c2nc(N)nc(C#N)c2C#N)cc1OC; 350
11. COCCOc1ccc(OCCOC)c(C=O)c1; 349

* * *

assayName: solvent given as SMILES
assayContext: in CN(C)C=O
reportedProperty: absorption maximum (nm)

1. Cn1c(/C=C/c2ccc(/C=C/c3nc4ccccc4[nH]3)cc2)[n+](C)c2ccccc21; 389
2. c1ccc(N2c3ccccc3Sc3cc(-c4cccc5nc6ccccc6cc45)ccc32)cc1; 407
3. CSc1sc(C(=O)c2ccccc2)c2nn[nH]c(=O)c12; 409
4. CC(C)(C)c1ccc2c(c1)c1cc(C(C)(C)C)ccc1n2-c1ccccc1-c1nc(-c2ccccc2-n2c3ccc(C(C)(C)C)cc3c3cc(C(C)(C)C)ccc32)nc(-c2ccccc2P(=O)(c2ccccc2)c2ccccc2)n1; 343.17
5. c1ccc(-c2nn(-c3ccccc3)c3nc4ccccc4cc23)cc1; 397.93
6. CC(C)(C)c1ccc2c(c1)c1cc(C(C)(C)C)ccc1n2-c1ccc(-c2nc(-c3ccc(P(=O)(c4ccccc4)c4ccccc4)cc3)nc(-c3ccc(P(=O)(c4ccccc4)c4ccccc4)cc3)n2)cc1; 365.92
7. CC1=CC(C)=[N+]2C1=Cc1c3ccccc3c(C#Cc3ccccc3)n1[B-]2(F)F; 612
8. COc1ccc(-n2nc(C(=O)N3CCCC3)c(N3CCCC3)n2)cc1; 334
9. Oc1ccccc1/N=C/c1ccccc1Oc1ccccc1; 349
10. Cc1c2ccccc2c(C2=C3C=CC=[N+]3[B-](F)(F)n3cccc32)c2ccccc12; 506
11. CC(=O)c1ccc2ccc3c(NCCC(=O)NCCCCCCc4nc5c(=O)[nH]c(N)nc5n4[C@H]4C[C@H](O)[C@@H](CO)O4)ccc4ccc1c2c43; 452
12. Cc1ccc(C(=O)/C=C/c2ccc(N(C)C)cc2)cc1; 419
13. CN(C)c1ccc(/C=C/c2nc3ccccc3s2)cc1; 402
14. COc1ccc([C@@H]2C[C@](O)(c3ccccn3)C[C@](O)(c3ccccn3)[C@H]2C(=O)c2ccc(N(c3ccccc3)c3ccccc3)cc2)cc1; 358
15. CCCCCCCCCCn1cc(C2=C(c3cn(CCCCCCCCCC)c4ccccc34)C(=O)N(C)C2=O)c2ccccc21; 474
